# Tested on: Methionine sulfoxide reductase A (Bos taurus)
# Experimental details: bovine MsrA enzyme activators, primary screen, biochemical, absorbance, HTS (AID 602163);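 further: 0% = vehicle and 100% = reference activator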
# Applied conditions: purified bovine MsrA, absorbance read-out; at 10.6 µM; active compounds read high
The whole screen tested about 360,000 compounds, of which about 1,100 (0.31%) were called active. The sample holds actives, similar compounds and a random draw of the others, so the mix is not that of the screen.
Quantity measured: activation (%)
Numbers only, in %.

# annotated cases, reported activation shown
O=C(CSCc1c(Cl)cccc1Cl)NN1C(=O)c2ccccc2C1=O : -2.13
COc1ccc(C(CNC(=O)c2cc3c(s2)CCCC3)N2CCOCC2)cc1 (stereo not given) : 9.37
O=C(NCCOc1ccccc1)N1[C@H]2CC[C@@H]1C=C(c1ccc(F)cc1OCc1ccccc1)C2 : -0.63
CC(C)C[C@H]1CNC(=O)C(=O)N1C[C@@H]1CCCN1C[C@H](Cc1ccccc1)N1C[C@H](CC(C)C)N(CC2CCCCCC2)C(=O)C1=O : -1.34

# input for lookup
Find the recorded activation belonging to COc1ccc(C(CNC(=O)c2cccnc2SC)N2CCOCC2)cc1 (stereo not given) and report it.
-1.39

* * *

# System: Methionine sulfoxide reductase A (Bos taurus)
# Experimental details: bovine MsrA enzyme activators, primary screen, biochemical, absorbance, HTS (AID 602163);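 further: 0% = vehicle and 100% = reference activator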
# Applied conditions: purified bovine MsrA, absorbance read-out; at 10.6 µM; active compounds read high
Screen size: about 360,000 compounds; about 1,100 (0.31%) were called active. Shown is part of a subset that was picked to be rich in actives.
I'd appreciate it if you could supply activation values for the items below.
Numbers only, in %.

Would you mind listing activation for each of the following molecules?
1. COc1ccccc1CNC(=O)C1CCN(S(=O)(=O)c2ccc3c(c2)OCCO3)CC1
2. O=C(CSc1ncccn1)N1CCCC1
3. CC(NS(=O)(=O)c1ccccc1)c1n[nH]c(=S)n1-c1ccccc1 (stereo unspecified)
4. COc1ccc(C(=O)OCC(=O)c2ccc(C)c(S(=O)(=O)N3CCOCC3)c2)cc1OC

1. -2.2
2. -3.29
3. -0.57
4. -4.43

Okay, here is my list. What is activation for each of these?
1. C[C@H](NC(=O)c1ccccc1Cl)C(=O)OCC(=O)N1CCN(c2ccccc2)CC1
2. COc1cc(NC(=O)COC(=O)c2ccc([N+](=O)[O-])s2)cc(OC)c1OC
3. Nc1ccn(C2CC(O)C(CO)O2)c(=O)n1 (stereo unspecified)
4. COc1ccc(C(=O)OCC(=O)c2ccc(Cl)s2)c(OC)c1OC
5. COc1ccc(C(=O)COC(=O)c2ccc([N+](=O)[O-])s2)cc1OC
6. Cn1c(SCC(=O)N2CCCC2)nnc1-c1cccs1
7. COc1cccc(/C=C/C(=O)OCC(=O)N2CCN(c3ccccc3)CC2)c1

1: 1.01; 2: 10.6; 3: -1.31; 4: -1.71; 5: 12.4; 6: -0.73; 7: -1.19

* * *

# System: Methionine sulfoxide reductase A (Bos taurus)
# Experimental details: bovine MsrA enzyme activators, primary screen, biochemical, absorbance, HTS (AID 602163);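 further: 0% = vehicle and 100% = reference activator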
# Applied conditions: purified bovine MsrA, absorbance read-out; at 10.6 µM; active compounds read high
The campaign covered roughly 360,000 compounds. About 1,100 (0.31%) were called active. This is one part of a sample in which actives are shown more often than they occur.
Quantity measured: activation (%)
Answers are plain numbers, in %.

Some solved cases for reference:
O=C(Cc1ccc(F)cc1)NC1CCCC1 : -5.09
FC(F)(F)C1CCCN(c2nsc3ccccc23)C1 (stereo not given) : 13
CCn1c(C)nc2c1C(=O)c1ccccc1C2=O : 6.51
O=C1CCC(C(=O)N2CCC(O)(c3ccccc3)CC2)CN1CCc1ccccc1 (stereo not given) : -3.3
COc1ccc(NC(=O)CSc2nnnn2-c2cccc(OC)c2)cc1 : -2.59
O=C(NCCCN1CCOCC1)c1cnn2c(-c3ccccc3)cc(-c3ccccc3)nc12 : 0.61
O=C(c1ccco1)N1CCN(Cc2cccc(C(F)(F)F)c2)CC1 : 7.76
CCn1c(=S)[nH]c2sc3c(c2c1=O)CCCCC3 : 1.11
CCN(CC)S(=O)(=O)c1ccc(OC(C)C)c(N)c1 : -3.46
C=CCn1c(SCC(=O)/C(C#N)=C(\C)N)nc2sc(C)c(C)c2c1=O : -12.1

Below is a list of compounds. For each, state its recorded activation.
1. O=c1[nH]snc1-c1c(Cl)cccc1Cl
2. COc1ccc(S(=O)(=O)N(C)C)cc1NC(=O)COC(=O)c1n[nH]c2ccccc12
3. O=C(NC1CCN(C(=S)Nc2ccc(Cl)cc2)CC1)C1CCCCC1
4. CN(C(=O)c1cccc(NC(=O)Cc2ccc(NC(=O)C3CCCN(C(=O)C4CC4)C3)cc2)c1)C1CC1 (stereo not given)

1. -0.32
2. -0.9
3. -9.13
4. -5.02

Hi team, please reply with activation for each item in this list.
1. C/C(=N\NC(=O)c1ccc(C)cc1)C1C(=O)c2ccccc2C1=O
2. Cc1ccc(NC(=O)C2CC2c2ccccc2)cc1 (stereo not given)
3. CN1c2ccc(C=O)c3c(C=O)ccc(c23)N(C)C1(C)C
4. CN1CCN(Cc2c(C(=O)N3CCc4ccccc4C3)nc3ccc(Cl)cn23)CC1
5. CSc1ccc(Cl)c(C(=O)OCC(=O)N2CC(C)OC(C)C2)c1 (stereo not given)
6. O=C(c1ccco1)N1CCN(C(=S)Nc2cc(F)cc(F)c2)CC1
7. COc1cc(C(=O)OCC(=O)NC23CC4CC(CC(C4)C2)C3)cc(OC)c1OC

-5.75
1.6
9.27
-13
1.67
-6.94
-1.08

Please give activation for each item listed below.
1. COc1ccccc1CNC(=O)c1cc(-c2cc(F)ccc2OC)n[nH]1
2. CCCCCCNC(=O)CSc1nccn1Cc1ccccc1
3. CCc1cc2c(=O)n(-c3ccccc3)c(SCC(=O)O)nc2s1
4. COc1cc(C(=O)OCCCN2CCOCC2)cc(OC)c1OC
5. COC(=O)c1scc(S(=O)(=O)C(C)(C)C)c1-n1cccc1

1.13
-3.24
-3.91
-0.8
-1.27

Report activation for each item below.
1. O=C(O)C1OC(C(=O)O)C2C1C(F)(F)C2(F)F (stereo not given)
2. CN(C)S(=O)(=O)c1ccc(NC(=O)COC(=O)c2n[nH]c3ccccc23)cc1
3. Cc1cccc(NC(=O)CSc2nnc(CCCCCNC(=O)OC(C)(C)C)o2)c1C
4. S=c1[nH]nc2c3c4c(sc3ncn12)CCCC4

0.7
14.2
-0.45
12.9

Could I get activation for every one of these entries?
1. Cc1ccc(NC(=O)c2cc([N+](=O)[O-])ccc2Cl)c(O)c1
2. O=C1C(Sc2cccc(F)c2)=C[C@@]2(O)CC[C@@H](O)[C@]1(Sc1cccc(F)c1)[C@H]2O
3. C/C(Cc1ccccc1)=N\NC(=O)CNC(=O)c1ccc2c(c1)OCCO2
4. c1ccc(CN=C2Nc3ccccc3CS2)nc1
5. CCCN(CC(=O)Nc1ccccc1C)C(=O)c1cc(=O)[nH]c2ccccc12
6. CCN(C(=O)Cc1nc(N)n[nH]1)C1(C(=O)Nc2ccccc2)CCCCC1
7. N=c1c2c3c(sc2ncn1CCCN1CCOCC1)CCCCC3

1: -10; 2: 11.4; 3: -1.01; 4: -3.81; 5: -8.69; 6: -1.75; 7: -6.06

For every item below, please supply its activation.
1. C=CCn1c(SCC(=O)c2c(N)n(C)c(=O)n(C)c2=O)nc2sc(CC)cc2c1=O
2. NC1=CC(=O)C(=O)c2cccnc21
3. O=C(O)/C=C/c1cn(Cc2ccccc2)nc1-c1cccs1
4. COc1ccc(CCNC(=O)CN2CCC(n3nnc4cc(F)ccc43)CC2)cc1OC
5. Cn1c(CCCOc2ccc(Cl)cc2Cl)n[nH]c1=S
6. COc1cc(OC)cc(-c2c(C#Cc3ccsc3)c3cc(-c4ccc(SC)cc4)ccc3n2C)c1
7. CCOc1cccc(-n2nnnc2-c2ccc(OC)cc2)c1

1. 8.63
2. 15.2
3. 9.05
4. -2.2
5. -3.29
6. -0.65
7. 15.8

Dear colleague, I am looking for the recorded activation of the following compound: COC(=O)C1(O)CC(C(C)C)=NN1C(=O)c1ccc(Cl)cc1 (stereo not given)
-2.59

The origin of these recorded values is PubChem BioAssay AID602163.
